compounds and their reported Remaining Percentages
# measurement-notes: Metabolic stability in hepatocytes
# Assay type: in vitro ADME, human
# study-conditions: 90 min
measured-parameter: Remaining Percentages (%)

COc1cc2c(Nc3cccc(OC)c3F)c(C#N)cnc2cc1OCCON1CCN(C)CC1 [13a] = 67.22
COc1cc2c(Nc3cccc(OC)c3Cl)c(C#N)cnc2cc1OCCON1CCN(C)CC1 [12a] = 46.43
COc1cc(Cl)ccc1Nc1c(C#N)cnc2cc(OCCON3CCN(C)CC3)c(OC)cc12 [15a] = 27.95
COc1cc(Nc2c(C#N)cnc3cc(OCCON4CCN(C)CC4)c(OC)cc23)c(F)cc1Cl = 15.72
COc1cc2c(Nc3cccc(Cl)c3F)c(C#N)cnc2cc1OCCON1CCN(C)CC1 [11a] = 29.85
COc1cc(Nc2c(C#N)cnc3cc(OCCON4CCN(C)CC4)c(OC)cc23)ccc1Cl [14a] = 37.41

====

# measurement-notes: Plasma protein binding by equilibrium dialysis
# Format: in vitro ADME
# study-conditions: both sexes, CD-1; mouse plasma
compounds and their reported recovery
measured-parameter: recovery (%)

COc1cc2c(Nc3cccc(OC)c3Cl)c(C#N)cnc2cc1OCCON1CCN(C)CC1 [12a] = 92
COc1cc(Cl)ccc1Nc1c(C#N)cnc2cc(OCCON3CCN(C)CC3)c(OC)cc12 [15a] = 95.9

====

# measurement-notes: Plasma protein binding by equilibrium dialysis
# Format: in vitro ADME
# study-conditions: both sexes; human plasma
measured-parameter: fraction unbound

COc1cc(Nc2c(C#N)cnc3cc(OCCON4CCN(C)CC4)c(OC)cc23)c(F)cc1Cl = 0.0558
COc1cc(Cl)ccc1Nc1c(C#N)cnc2cc(OCCON3CCN(C)CC3)c(OC)cc12 [15a] = 0.0773
COc1cc2c(Nc3cccc(OC)c3F)c(C#N)cnc2cc1OCCON1CCN(C)CC1 [13a] = 0.13
COc1cc2c(Nc3cccc(OC)c3Cl)c(C#N)cnc2cc1OCCON1CCN(C)CC1 [12a] = 0.0737

====

# Test system: Caco-2 cells
# measurement-notes: Caco-2 permeability
# study-conditions: b-a
Given measured Caco-2 Papp (b-a), output Y if it is greater than or equal to 30 ×10⁻⁶ cm/s and N if not.

COc1cc2c(Nc3cccc(OC)c3Cl)c(C#N)cnc2cc1OCCON1CCN(C)CC1 [12a] = N
COc1cc2c(Nc3cccc(Cl)c3F)c(C#N)cnc2cc1OCCON1CCN(C)CC1 [11a] = N
COc1cc(Nc2c(C#N)cnc3cc(OCCON4CCN(C)CC4)c(OC)cc23)c(F)cc1Cl = N
COc1cc2c(Nc3cccc(OC)c3F)c(C#N)cnc2cc1OCCON1CCN(C)CC1 [13a] = Y
COc1cc(Cl)ccc1Nc1c(C#N)cnc2cc(OCCON3CCN(C)CC3)c(OC)cc12 [15a] = N
COc1cc(Nc2c(C#N)cnc3cc(OCCON4CCN(C)CC4)c(OC)cc23)ccc1Cl [14a] = Y

====

# measurement-notes: Plasma protein binding by equilibrium dialysis
# Format: in vitro ADME
# study-conditions: both sexes; human plasma, 6 h
compounds and their reported remaining at 6 h
measured-parameter: remaining at 6 h (%)

COc1cc2c(Nc3cccc(OC)c3F)c(C#N)cnc2cc1OCCON1CCN(C)CC1 [13a] = 98.3
COc1cc(Cl)ccc1Nc1c(C#N)cnc2cc(OCCON3CCN(C)CC3)c(OC)cc12 [15a] = 99.4
COc1cc2c(Nc3cccc(OC)c3Cl)c(C#N)cnc2cc1OCCON1CCN(C)CC1 [12a] = 97.8
COc1cc(Nc2c(C#N)cnc3cc(OCCON4CCN(C)CC4)c(OC)cc23)c(F)cc1Cl [8a] = 92.7

The values you see were collected from paper PMC11472320.
